# test-system: CCR8-NT.MBP (CCR8 N-terminus peptide aa 1-35 fused with maltose binding protein)
# test: ForteBio Octet, antibody at 10 µg/ml captured on AHC biosensors, 300 nM CCR8-NT.MBP as analyte
readout: Octet (nm shift) (nm)
Answer format: numeric, nm implied, no suffix.

Problem: Which Octet (nm shift) value is on record for 7B16.006 (CDR H3 alanine scan variant of 7-B16) (antibody, human IgG1, kappa, V domains shown) VH: EVQLVESGGGLVQPKGSLKLSCAASGFTFNTYAMNWVRQAPGKGLEWVARIRSKSNNYATYYADSVKDRFTISRDDSQSMLYLQMNNLKTEDTAMYYCVRGLARYRFFDVWGAGTTVTVSS VL: DIVMTQAEPSVPVTPGESISISCRSSKSLLHSNGNTYLYWFLQRPGQSPQLLIYRMSNLASGVPDRFSGSGSGTAFTLRISRVEAEDVGVYYCMQHLEYPFTFGGGTKLEIKR ?
Result: 0.22

Problem: Which Octet (nm shift) value is on record for 7B16.009 (CDR H3 alanine scan variant of 7-B16) (antibody, human IgG1, kappa, V domains shown) VH: EVQLVESGGGLVQPKGSLKLSCAASGFTFNTYAMNWVRQAPGKGLEWVARIRSKSNNYATYYADSVKDRFTISRDDSQSMLYLQMNNLKTEDTAMYYCVRGLLRYAFFDVWGAGTTVTVSS VL: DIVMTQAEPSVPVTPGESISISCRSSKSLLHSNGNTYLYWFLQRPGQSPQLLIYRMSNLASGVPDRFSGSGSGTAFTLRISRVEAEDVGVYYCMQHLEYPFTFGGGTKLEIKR ?
Result: 0.303

Problem: Which Octet (nm shift) value is on record for 7B16.008 (CDR H3 alanine scan variant of 7-B16) (antibody, human IgG1, kappa, V domains shown) VH: EVQLVESGGGLVQPKGSLKLSCAASGFTFNTYAMNWVRQAPGKGLEWVARIRSKSNNYATYYADSVKDRFTISRDDSQSMLYLQMNNLKTEDTAMYYCVRGLLRARFFDVWGAGTTVTVSS VL: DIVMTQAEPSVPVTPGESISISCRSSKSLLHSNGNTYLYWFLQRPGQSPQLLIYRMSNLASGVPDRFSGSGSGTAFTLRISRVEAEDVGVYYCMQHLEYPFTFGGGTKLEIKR ?
Result: 0.436

src = patent US20260116987A1
